Origin of the recorded values: PubChem BioAssay (Tox21)

# assayText: qHTS RealTime-Glo MT Cell Viability Assay in HEK293 cells - 40 hour (AID 1224874); also: % is scaled to controls: 0 for no effect and ±100 for the full control effect; nearly all actives have a fitted effect of over 50% in size
# setupConditions: RealTime-Glo luminescence; stronger effect = lower value
Inconclusive results are not listed.
observable: max response (%)

>>> measured("N#Cc1ccc(O)cc1")
-7.33
>>> measured("CNC(C)Cc1ccc2c(c1)OCO2 (centres undefined)")
-1.8
>>> measured("Cn1[nH]nnc1=S")
4.93
>>> measured("CC(=[OH+])/C=C(/C)[O-].CC(=[OH+])/C=C(\\C)[O-].CC(=[OH+])/C=C(\\C)[O-].[Fe]")
5.66
>>> measured("Fc1cccc(Cl)c1CCl")
-1.59
>>> measured("Oc1ccccc1Br")
3.02
>>> measured("CN(C)CCc1c[nH]c2cccc(O)c12")
-1.01
>>> measured("N#CCc1ccc(Cl)cc1")
1.31
>>> measured("FC(F)(F)c1cccc(C2=CCN(CCc3ccc4ccccc4c3)CC2)c1")
2.33
>>> measured("C1CCC2CCCCC2C1 (centres undefined)")
15.5
>>> measured("CC(C)C(=O)Cl")
0.629
>>> measured("SCc1ccco1")
-11.9
>>> measured("O=c1c(C2CC(c3ccc(-c4ccc(Br)cc4)cc3)Cc3ccccc32)c(O)sc2ccccc12 (centres undefined)")
-20.8
>>> measured("C[C@@H](Oc1ccc(Cl)cc1Cl)C(=O)O")
0.534

---

# systemName: Luciferin 4-monooxygenase (Photinus pyralis)
# assayText: qHTS assay to identify small molecule inhibitors of firefly luciferase (AID 1224835); also: nearly all actives have a fitted effect of over 25% in size
# setupConditions: purified P. pyralis luciferase, luminescence inhibition; series mostly up to 115 µM
Results filed as inconclusive are left out. Calls of active or inactive are those of the source. The call rests on the fitted dose curve; in most records, active means well fitted inhibition curve with a large enough effect in the repeat runs; inconclusive means weak or mixed curves; inactive means flat fitted curve, though single readings scatter.
Possible outcomes: class 1 for active, class 0 for inactive

>>> classname("CC(C)CBr")
"class 0"
>>> classname("ClCc1ccccc1CCl")
"class 0"
>>> classname("Cc1cccc(OP(=O)(Oc2cccc(C)c2)Oc2cccc(C)c2)c1")
"class 0"
>>> classname("O=c1ssc(Cl)c1Cl")
"class 1"
>>> classname("Cc1cc(SCc2sc(-c3ccc(C(F)(F)F)c(F)c3)nc2C)ccc1OCC(=O)O")
"class 1"
>>> classname("O=C(O)COc1nc(Cl)c(Cl)cc1Cl")
"class 0"
>>> classname("CCCCOP(=O)(CCCC)OCCCC")
"class 0"

---

# assayText: A CellTox Green Cytotoxicity Assay to monitor cytotoxicity in HEK293 cells - 24 hour (AID 1224875); also: nearly all actives have a fitted effect of over 45% in size
# setupConditions: CellTox Green fluorescence; series mostly up to 76.8 µM
Inconclusive results are not listed. The source made the active and inactive calls. Calls follow the shape of the dose curve; as a rule, active = well fitted activation curve with a large enough effect in the repeat runs; inconclusive = weak or mixed curves; inactive = flat fitted curve, though single readings scatter.
Possible outcomes: yes (1) (active), no (0) (inactive)

>>> classname("CCC(C)c1cc(C(C)(C)C)cc(-n2nc3ccccc3n2)c1O (stereo not drawn)")
"no (0)"
>>> classname("BrCBr")
"no (0)"
>>> classname("N#C/C=C/c1ccccc1")
"no (0)"
>>> classname("CCOCn1c(-c2ccc(Cl)cc2)c(C#N)c(Br)c1C(F)(F)F")
"no (0)"
>>> classname("BrC(Br)Br")
"no (0)"
>>> classname("Cc1cc(C(F)(C(F)(F)F)C(F)(F)F)ccc1NC(=O)c1cccc(I)c1C(=O)NC(C)(C)CS(C)(=O)=O")
"no (0)"
>>> classname("O=c1c(C2CC(c3ccc(-c4ccc(Br)cc4)cc3)Cc3ccccc32)c(O)sc2ccccc12 (stereo not drawn)")
"no (0)"
>>> classname("COc1ccc([N+](=O)[O-])cc1O")
"no (0)"
>>> classname("ClC(Cl)=C(c1ccc(Cl)cc1)c1ccc(Cl)cc1")
"no (0)"
>>> classname("CC(C)Oc1cccc(NC(=O)c2ccccc2C(F)(F)F)c1")
"yes (1)"
>>> classname("c1ccc2c(c1)[nH]c1cnccc12")
"no (0)"
>>> classname("CC(=O)[O-].[Tl+]")
"no (0)"
>>> classname("O=c1ssc(Cl)c1Cl")
"yes (1)"

---

# assayText: qHTS assay to test for compound auto fluorescence at 590 nm (red) in HepG2 cells (AID 720674); also: % is scaled to controls: 0 for no effect and ±100 for the full control effect
# setupConditions: HepG2 autofluorescence, red 540/590 nm, 1 h; series mostly up to 91.3 µM
# Source text: U.S. Tox21 Program National Center for Advancing Translational Sciences [NCATS] NIH Chemical Genomics Center [NCGC] U.S. Environmental Protection Agency [EPA] National Institutes of Environmental Health Sciences [NIEHS] National Toxicology Program [NTP] U.S. Food and Drug Administration [FDA] Tox21 Assay Overview: Compound auto fluorescence often interferes with screening of the compound library against various biological targets and signaling pathways. […] This assay includes the red fluorescence data. […]
Calls of active or inactive are those of the source. Calls come from the whole dose curve; as a rule, active = well fitted curve in the direction sought with a large enough effect in the repeat runs; inconclusive = weak or mixed curves; inactive = flat fitted curve, though single readings scatter.
observable: fluorescence, relative to Rose Bengal

>>> measured("CC(C)CCCCCOC(=O)c1ccccc1C(=O)OCCCCCC(C)C")
"inactive"
>>> measured("COc1cccc(C(=O)CCN[C@@H](C)[C@H](O)c2ccccc2)c1")
"inactive"
>>> measured("O=c1ssc(Cl)c1Cl")
"inactive"
>>> measured("COC12CC[C@@]3(C[C@@H]1C(C)(O)C(C)(C)C)[C@H]1Cc4ccc(O)c5c4[C@@]3(CCN1CC1CC1)[C@H]2O5 (stereo not given in full)")
"inactive"
>>> measured("C[C@]12CC[C@@H]3c4ccc(OC(=O)N(CCCl)CCCl)cc4CC[C@H]3[C@@H]1CC[C@@H]2O")
"inactive"
>>> measured("CNC(C)Cc1ccc2c(c1)OCO2 (stereo not given)")
"inactive"
>>> measured("Cc1cc(N=Nc2ccccc2C)ccc1N")
"inactive"
>>> measured("Clc1ccc(CCC(Cn2ccnc2)Sc2c(Cl)cccc2Cl)cc1 (stereo not given)")
"-0.283% [at 18.6 µM] (inactive)"
>>> measured("Clc1ccc(C(c2ccc(Cl)cc2)C(Cl)(Cl)Cl)cc1")
"inactive"
>>> measured("O=C(O)C1C2CCC(O2)C1C(=O)O (stereo not given)")
"inactive"
>>> measured("O=[N+]([O-])c1cc(C(F)(F)F)c(Cl)c([N+](=O)[O-])c1Cl")
"inactive"
>>> measured("Cc1ccc(OP(=O)(Oc2ccccc2)Oc2ccccc2)cc1")
"inactive"
>>> measured("CCC(C)c1cc([N+](=O)[O-])cc([N+](=O)[O-])c1OC(=O)C=C(C)C (stereo not given)")
"inactive"
>>> measured("FC(Cl)(Cl)Cl")
"inactive"
>>> measured("CCCN(CCC)c1c([N+](=O)[O-])cc(S(N)(=O)=O)cc1[N+](=O)[O-]")
"inactive"
>>> measured("O=[N+]([O-])c1ccc2ccc3cccc4ccc1c2c34")
"inactive"
>>> measured("CCCCCCCCCCCCBr")
"inactive"
>>> measured("CS(=O)(=O)c1ccc(C(=O)C2C(=O)CCCC2=O)c([N+](=O)[O-])c1")
"inactive"
>>> measured("CC(=O)OC1(c2ccccc2)CCN(CCc2ccccc2)CC1")
"inactive"
>>> measured("CCCCCCCCCBr")
"inactive"
>>> measured("C[C@@H]1O[C@@H](O[C@H]2C[C@@H](O)[C@]3(CO)[C@H]4[C@H](O)C[C@]5(C)[C@@H](C6=CC(=O)OC6)CC[C@]5(O)[C@@H]4CC[C@]3(O)C2)[C@H](O)[C@H](O)[C@H]1O")
"inactive"
>>> measured("CC(C)[C@H](C(=O)O[C@H](C#N)c1cccc(Oc2ccccc2)c1)c1ccc(Cl)cc1")
"inactive"
>>> measured("O=c1[nH]c2ccccc2n1C1CCN(CCCC(c2ccc(F)cc2)c2ccc(F)cc2)CC1")
"inactive"
>>> measured("CC(Cc1ccc(C(C)(C)C)cc1)CN1C[C@@H](C)O[C@@H](C)C1 (stereo not given in full)")
"inactive"
>>> measured("O=C(CCl)C(Cl)Cl")
"inactive"
>>> measured("CC(C)OS(C)(=O)=O")
"inactive"
>>> measured("N#C/C=C/C#N")
"inactive"
>>> measured("O=C/C(Cl)=C(/Cl)C(=O)O")
"inactive"
>>> measured("C=CCC1=C(C)C(OC(=O)C2C(C=C(C)C)C2(C)C)CC1=O (stereo not given)")
"inactive"
>>> measured("CC(=O)C(Cl)(Cl)Cl")
"inactive"
>>> measured("ClC1=C(Cl)C2(Cl)C3C(Cl)C(Cl)CC3C1(Cl)C2(Cl)Cl (stereo not given)")
"inactive"
>>> measured("[Hg+2].[I-].[I-]")
"inactive"
>>> measured("c1ccc(OCC2CO2)cc1 (stereo not given)")
"inactive"
>>> measured("CC1(C)C(/C=C(\\Cl)C(F)(F)F)C1C(=O)OC(C#N)c1cccc(Oc2ccccc2)c1 (stereo not given)")
"inactive"
>>> measured("CC(C)OC(=O)C(O)(c1ccc(Cl)cc1)c1ccc(Cl)cc1")
"inactive"
>>> measured("ClC1=C(Cl)C2(Cl)C3C(Cl)C=CC3C1(Cl)C2(Cl)Cl (stereo not given)")
"inactive"
>>> measured("CC(C)Oc1cccc(NC(=O)c2ccccc2C(F)(F)F)c1")
"inactive"
>>> measured("Oc1ccc(C(=C(Cl)Cl)c2ccc(O)cc2)cc1")
"inactive"
>>> measured("CCCCCCCCCCCCCCCCCCn1cc[n+](C)c1")
"inactive"
>>> measured("CC(C)(C)C(O)/C(=C\\c1ccc(Cl)cc1Cl)n1cncn1 (stereo not given)")
"inactive"
>>> measured("CC(C)[C@H](C(=O)OC(C#N)c1cccc(Oc2ccccc2)c1)c1ccc(OC(F)F)cc1 (stereo not given in full)")
"inactive"
>>> measured("c1ccc2c(c1)OCC(C1=NCCN1)O2 (stereo not given)")
"inactive"
>>> measured("CC[C@H](C)[C@H]1O[C@]2(C=C[C@@H]1C)C[C@@H]1C[C@@H](C/C=C(\\C)[C@@H](O[C@H]3C[C@H](OC)[C@@H](O[C@H]4C[C@H](OC)[C@@H](O)[C@H](C)O4)[C@H](C)O3)[C@@H](C)/C=C/C=C3\\CO[C@@H]4[C@H](O)C(C)=C[C@@H](C(=O)O1)[C@]34O)O2")
"inactive"
>>> measured("Oc1ccc(C2(c3ccc(O)cc3)CCCCC2)cc1")
"inactive"
>>> measured("CC(C)CC(C)Nc1ccc(Nc2ccccc2)cc1 (stereo not given)")
"inactive"
